Where do the numbers come from? From ChEMBL document CHEMBL1149129.

# ASSAY_METHOD_TEXT: In vitro percent nitric oxide released from the test compound was determined as the percent of nitrite (NO2-) produced in the present of L-cysteine in Phosphate buffer saline at 16 hr
# Assay type: functional
RECORDED_METRIC: NO release (%)
The response must be a number in % with no trailing unit.

Sample records with NO release:
>>> test_result("O=c1[nH]c(=O)n([C@H]2C[C@H](O)[C@@H](COc3no[n+]([O-])c3S(=O)(=O)c3ccccc3)O2)cc1F")
68.7
>>> test_result("O=c1[nH]c(=O)n([C@H]2C[C@H](Oc3no[n+]([O-])c3S(=O)(=O)c3ccccc3)[C@@H](CO)O2)cc1C(F)(F)F")
78.5
>>> test_result("Cc1cn([C@H]2C[C@H](Oc3no[n+]([O-])c3S(=O)(=O)c3ccccc3)[C@@H](CO)O2)c(=O)[nH]c1=O")
77.3

Asked: Query: NO release; subject: O=[N+]([O-])O[C@H]1CO[C@H]2[C@@H]1OC[C@H]2O[N+](=O)[O-] [ISOSORBIDE DINITRATE]
Given back: 2.6

Asked: I'd like to know its NO release. The molecule in question is `O=c1[nH]c(=O)n([C@H]2C[C@H](Oc3no[n+]([O-])c3S(=O)(=O)c3ccccc3)[C@@H](CO)O2)cc1F`
Given back: 73.9

Asked: Would you mind telling me what NO release value was observed for `O=c1[nH]c(=O)n([C@H]2C[C@H](Oc3no[n+]([O-])c3S(=O)(=O)c3ccccc3)[C@@H](CO)O2)cc1I` ?
Given back: 74.8

Asked: So what does the record say about NO release for `COc1no[n+]([O-])c1S(=O)(=O)c1ccccc1` ?
Given back: 44.8

###

# Tested on: EMT6
# ASSAY_METHOD_TEXT: In vitro cell cytotoxicity was determined against EMT-6 cell line
# Format: functional
# ASSAY_CONDITIONS: Mus musculus
# CC50 annotations
Supply the numeric figure in nM, leaving out any unit text.

Consider the reported CC50 for these compounds:
>>> test_result("O=c1[nH]c(=O)n([C@H]2C[C@H](O)[C@@H](CO)O2)cc1I")
0.009
>>> test_result("O=c1[nH]c(=O)n([C@H]2C[C@H](Oc3no[n+]([O-])c3S(=O)(=O)c3ccccc3)[C@@H](CO)O2)cc1C(F)(F)F")
880
>>> test_result("O=[N+]([O-])O[C@H]1CO[C@H]2[C@@H]1OC[C@H]2O[N+](=O)[O-] [ISOSORBIDE DINITRATE]")
380000
>>> test_result("O=c1[nH]c(=O)n([C@H]2C[C@H](Oc3no[n+]([O-])c3S(=O)(=O)c3ccccc3)[C@@H](CO)O2)cc1I")
80

Field: next compound
Asked: Item `O=c1[nH]c(=O)n([C@H]2C[C@H](O)[C@@H](COc3no[n+]([O-])c3S(=O)(=O)c3ccccc3)O2)cc1I` has what recorded CC50?
Given back: 1000

###

The entries below come with measured NO release values attached.
# ASSAY_METHOD_TEXT: In vitro percent nitric oxide released from the test compound was determined as the percent of nitrite (NO2-) produced in phosphate buffered saline at 16 hr
# Assay type: functional
Only the number, expressed in %, is required.

Below: 3 compounds and their reported NO release.
>>> test_result("Cc1cn([C@H]2C[C@H](O)[C@@H](COc3no[n+]([O-])c3S(=O)(=O)c3ccccc3)O2)c(=O)[nH]c1=O")
2.2
>>> test_result("O=c1[nH]c(=O)n([C@H]2C[C@H](O)[C@@H](COc3no[n+]([O-])c3S(=O)(=O)c3ccccc3)O2)cc1F")
0.7
>>> test_result("O=c1[nH]c(=O)n([C@H]2C[C@H](Oc3no[n+]([O-])c3S(=O)(=O)c3ccccc3)[C@@H](CO)O2)cc1I")
0.4

Now for another entry.
Asked: Find the recorded NO release belonging to `O=c1ccn([C@H]2C[C@H](O)[C@@H](COc3no[n+]([O-])c3S(=O)(=O)c3ccccc3)O2)c(=O)[nH]1` and report it.
Given back: 0.2

###

Below, each entry is listed with its recorded CC50.
# Tested on: Hs578Bst (Homo sapiens)
# ASSAY_METHOD_TEXT: In vitro cell cytotoxicity was determined against Hs 578.Bst cell line

>>> test_result("O=S(=O)(c1ccccc1)c1no[n+]([O-])c1S(=O)(=O)c1ccccc1")
"100 nM"
>>> test_result("O=c1ccn([C@H]2C[C@H](Oc3no[n+]([O-])c3S(=O)(=O)c3ccccc3)[C@@H](CO)O2)c(=O)[nH]1")
"4800 nM"
>>> test_result("O=c1[nH]c(=O)n([C@H]2C[C@H](Oc3no[n+]([O-])c3S(=O)(=O)c3ccccc3)[C@@H](CO)O2)cc1I")
"800 nM"
>>> test_result("COc1no[n+]([O-])c1S(=O)(=O)c1ccccc1")
"680 nM"

Now take the following compound into account.
Asked: Suppose we examine the compound `O=c1[nH]c(=O)n([C@H]2C[C@H](Oc3no[n+]([O-])c3S(=O)(=O)c3ccccc3)[C@@H](CO)O2)cc1C(F)(F)F` ; what CC50 value has been reported?
Given back: 4400 nM

###

# Test system: 143B
# ASSAY_METHOD_TEXT: In vitro cell cytotoxicity was determined against 143B-LTK cell line
# Type: functional
# ASSAY_CONDITIONS: Homo sapiens
Label Condition met when CC50 < 2 µM; otherwise Condition not met.

See these solved cases before continuing.
>>> classification("O=c1ccn([C@H]2C[C@H](O)[C@@H](COc3no[n+]([O-])c3S(=O)(=O)c3ccccc3)O2)c(=O)[nH]1")
"Condition not met"
>>> classification("Cc1cn([C@H]2C[C@H](Oc3no[n+]([O-])c3S(=O)(=O)c3ccccc3)[C@@H](CO)O2)c(=O)[nH]c1=O")
"Condition met"
>>> classification("O=c1[nH]c(=O)n([C@H]2C[C@H](Oc3no[n+]([O-])c3S(=O)(=O)c3ccccc3)[C@@H](CO)O2)cc1C(F)(F)F")
"Condition met"
>>> classification("O=[N+]([O-])O[C@H]1CO[C@H]2[C@@H]1OC[C@H]2O[N+](=O)[O-] [ISOSORBIDE DINITRATE]")
"Condition not met"

Asked: Bench note: check whether `O=c1[nH]c(=O)n([C@H]2C[C@H](Oc3no[n+]([O-])c3S(=O)(=O)c3ccccc3)[C@@H](CO)O2)cc1F` shows CC50 below 2 µM
Given back: Condition met

Asked: Criterion: CC50 strictly below 2 µM. Is it met by `COc1no[n+]([O-])c1S(=O)(=O)c1ccccc1` ?
Given back: Condition met

###

# ASSAY_METHOD_TEXT: In vitro percent nitric oxide released from the test compound was determined as the percent of nitrite (NO2-) produced in phosphate buffered saline at 16 hr
# Assay type: functional
RECORDED_METRIC: NO release (%)
I only need the number, in %, no unit after it.

Example cases with answers are listed next.
>>> test_result("Cc1cn([C@H]2C[C@H](Oc3no[n+]([O-])c3S(=O)(=O)c3ccccc3)[C@@H](CO)O2)c(=O)[nH]c1=O")
0.4
>>> test_result("O=c1[nH]c(=O)n([C@H]2C[C@H](Oc3no[n+]([O-])c3S(=O)(=O)c3ccccc3)[C@@H](CO)O2)cc1C(F)(F)F")
0.4
>>> test_result("O=c1ccn([C@H]2C[C@H](Oc3no[n+]([O-])c3S(=O)(=O)c3ccccc3)[C@@H](CO)O2)c(=O)[nH]1")
0.2
>>> test_result("O=c1[nH]c(=O)n([C@H]2C[C@H](Oc3no[n+]([O-])c3S(=O)(=O)c3ccccc3)[C@@H](CO)O2)cc1F")
0.2
>>> test_result("O=c1[nH]c(=O)n([C@H]2C[C@H](O)[C@@H](COc3no[n+]([O-])c3S(=O)(=O)c3ccccc3)O2)cc1I")
9.9
>>> test_result("COc1no[n+]([O-])c1S(=O)(=O)c1ccccc1")
1
>>> test_result("O=S(=O)(c1ccccc1)c1no[n+]([O-])c1S(=O)(=O)c1ccccc1")
0.4

Asked: For O=[N+]([O-])O[C@H]1CO[C@H]2[C@@H]1OC[C@H]2O[N+](=O)[O-] [ISOSORBIDE DINITRATE] , what is its reported NO release?
Given back: 24

###

# Tested on: Hs578Bst (Homo sapiens)
# ASSAY_METHOD_TEXT: In vitro cell cytotoxicity was determined against Hs 578.Bst cell line
RECORDED_METRIC: CC50 (µM)
Give the value, in units of µM, as a plain number.

Here are 2 compounds together with their reported answers.
>>> test_result("O=c1[nH]c(=O)n([C@H]2C[C@H](Oc3no[n+]([O-])c3S(=O)(=O)c3ccccc3)[C@@H](CO)O2)cc1F")
4.4
>>> test_result("Cc1cn([C@H]2C[C@H](O)[C@@H](COc3no[n+]([O-])c3S(=O)(=O)c3ccccc3)O2)c(=O)[nH]c1=O")
6.8

Now consider a different compound.
Asked: Using the record for `O=c1[nH]c(=O)n([C@H]2C[C@H](O)[C@@H](COc3no[n+]([O-])c3S(=O)(=O)c3ccccc3)O2)cc1F` , report its CC50.
Given back: 0.076
